Test target: 5-hydroxytryptamine receptor 5A (Homo sapiens) (UniProt P47898)
Sequence (P47898 whole entry): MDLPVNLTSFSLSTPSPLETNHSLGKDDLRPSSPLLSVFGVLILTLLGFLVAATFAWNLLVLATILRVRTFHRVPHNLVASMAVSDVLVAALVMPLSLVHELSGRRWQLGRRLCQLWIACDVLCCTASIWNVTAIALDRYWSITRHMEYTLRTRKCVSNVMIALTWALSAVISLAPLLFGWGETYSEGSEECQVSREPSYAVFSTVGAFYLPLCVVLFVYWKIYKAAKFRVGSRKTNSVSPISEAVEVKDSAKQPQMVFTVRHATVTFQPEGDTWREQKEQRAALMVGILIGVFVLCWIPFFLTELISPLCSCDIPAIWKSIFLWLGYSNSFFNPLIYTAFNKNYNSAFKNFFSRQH
Run description: Displacement of [3H]LSD from 5HT5A receptor (unknown origin) at 10 uM

Molecule | inhibition (%)
CCCCOc1c(OC)cc2c3c1-c1cc4c(cc1CC3N(C)CC2c1ccccc1)OCO4 (stereo not given) | 17.6
CCCOc1c(OC)cc2c3c1-c1cc4c(cc1CC3N(C)CC2c1ccccc1)OCO4 (stereo not given) | 5.2
COc1cc2c3c(c1OCc1ccc(Br)cc1)-c1cc4c(cc1CC3N(C)CC2c1ccccc1)OCO4 (stereo not given) | -9.3
COc1cc2c3c(c1OCC1CC1)-c1cc4c(cc1CC3N(C)CC2c1ccccc1)OCO4 (stereo not given) | 5.2
COc1cc2c3c(c1O)-c1cc4c(cc1CC3N(C)CC2c1ccccc1)OCO4 (stereo not given) | 1.8
